- System: HIV-1IIIB
- TEST_NAME: microbe, parasite or virus in culture
- Type: cell-based, Human Immunodeficiency Virus type-1 (HIV-1)
- DETAILS: Human immunodeficiency virus 1, MT4, read-out: EC50 HIV-1IIIB
Overview of recorded EC50 for various compounds

Would you please look over these solved cases?
{"COMPOUND": "O=C(Nc1ccc(-n2nnc3cc(Cl)c(Cl)cc32)cc1)c1ccc(Cl)cc1", "RECORDED_METRIC": "EC50", "RESULT": "> 100 µM"}
{"COMPOUND": "O=C(Nc1ccccc1)Nc1ccc(-n2nc3cc(Cl)c(Cl)cc3n2)cc1 [10e]", "RECORDED_METRIC": "EC50", "RESULT": "> 100 µM"}
{"COMPOUND": "CCCC(=O)Nc1ccc(-n2nc3cc(Cl)c(Cl)cc3n2)cc1", "RECORDED_METRIC": "EC50", "RESULT": "> 100 µM"}

// below: EC50 requested for another compound
Record lookup: for HIV-1IIIB, what EC50 belongs to O=C(Nc1ccc(-n2nc3cc(Cl)c(Cl)cc3n2)cc1)Nc1cccc2ccccc12 [10k] ? > 100 µM

----------
- TEST_NAME: Cytotoxicity, MTT method, BHK cells
- DETAILS: Syrian hamster (Mesocricetus auratus)
RECORDED_METRIC: CC50 (µM)
Express it in µM; write the number only.

{"MOLECULE": "O=C(Nc1ccc(-n2nc3cc(Cl)c(Cl)cc3n2)cc1)NC1CCCCC1 [10d]", "CC50 [µM]": 71}
{"MOLECULE": "CC(=O)N(C(C)=O)c1ccc(-n2nc3cc(Cl)c(Cl)cc3n2)cc1", "CC50 [µM]": 72}
{"MOLECULE": "CCCC(=O)N(C(=O)CCC)c1ccc(-n2nnc3cc(Cl)c(Cl)cc32)cc1", "CC50 [µM]": 16}
{"MOLECULE": "O=C(Nc1ccc(-n2nc3cc(Cl)c(Cl)cc3n2)cc1)c1ccc([N+](=O)[O-])cc1", "CC50 [µM]": 68}
{"MOLECULE": "O=C(Nc1ccc(-n2nnc3cc(Cl)c(Cl)cc32)cc1)c1ccccc1", "CC50 [µM]": 44}

// below: CC50 requested for another molecule
Which CC50 is listed for "COc1cc(C(=O)Nc2ccc(-n3nc4cc(Cl)c(Cl)cc4n3)cc2)cc(OC)c1OC" ? 35

----------
- Tested on: HIV-1IIIB
- TEST_NAME: microbe, parasite or virus in culture
- Type: cell-based, Human Immunodeficiency Virus type-1 (HIV-1)
- DETAILS: Human immunodeficiency virus 1, MT4, read-out: EC50 HIV-1IIIB
RECORDED_METRIC: EC50

Would you please look over these solved cases?
{"COMPOUND": "CC(=O)N(C(C)=O)c1ccc(-n2nc3cc(Cl)c(Cl)cc3n2)cc1 [6d]", "EC50": "> 33 µM"}
{"COMPOUND": "O=C(Nc1ccc(F)cc1)Nc1ccc(-n2nc3cc(Cl)c(Cl)cc3n2)cc1 [10i]", "EC50": "> 100 µM"}
{"COMPOUND": "CCC(=O)N(C(=O)CC)c1ccc(-n2nc3cc(Cl)c(Cl)cc3n2)cc1 [6e]", "EC50": "> 15 µM"}
{"COMPOUND": "O=C(Nc1ccc(-n2nc3cc(Cl)c(Cl)cc3n2)cc1)c1ccc(Cl)cc1 [8f]", "EC50": "> 100 µM"}
{"COMPOUND": "O=C(Nc1ccc(-n2nnc3cc(Cl)c(Cl)cc32)cc1)c1ccccc1 [7a]", "EC50": "> 100 µM"}
{"COMPOUND": "O=C(Nc1ccc(-n2nc3cc(Cl)c(Cl)cc3n2)cc1)c1ccc([N+](=O)[O-])cc1 [8e]", "EC50": "> 100 µM"}
{"COMPOUND": "COc1ccc(NC(=O)Nc2ccc(-n3nc4cc(Cl)c(Cl)cc4n3)cc2)cc1 [10g]", "EC50": "> 100 µM"}
{"COMPOUND": "CCCCNC(=O)Nc1ccc(-n2nc3cc(Cl)c(Cl)cc3n2)cc1 [10c]", "EC50": "> 100 µM"}

// below: EC50 requested for another compound
Record lookup: for HIV-1IIIB, what EC50 belongs to N#Cc1ccc(C(=O)Nc2ccc(-n3nnc4cc(Cl)c(Cl)cc43)cc2)cc1 [7h] ? > 100 µM

The reported numbers originate from paper PMC6476926.
